The reported measurements were obtained from PubChem BioAssay AID1654.

Biological target: Dual specificity protein phosphatase 3 (Homo sapiens) (UniProt P51452)
Sequence (P51452 whole entry, looked up): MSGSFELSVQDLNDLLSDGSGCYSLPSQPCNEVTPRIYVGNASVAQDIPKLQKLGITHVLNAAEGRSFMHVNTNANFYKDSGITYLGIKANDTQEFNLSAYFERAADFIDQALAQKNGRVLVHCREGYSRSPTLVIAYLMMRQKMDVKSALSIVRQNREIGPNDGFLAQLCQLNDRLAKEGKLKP
Test: VHR1 phosphatase inhibitors, primary screen, biochemical, absorbance, uHTS (AID 1654)
Details: recombinant VHR phosphatase, pNPP absorbance, at 13.3 µM
The campaign covered roughly 290,000 compounds. About 1,500 (0.52%) were called active. No stated cut-off is given here; in the data, active means inhibition above about 50%; inactive means the rest. Only a selection was taken, and actives are over-represented in it overall.
Possible outcomes: TRUE = active, FALSE = inactive

> print(dat)
                                    compound                         target.under.test  answer.label
 1  CC1CN(C(=S)Nc2ccc(Br)cc2Cl)CC(C)O1 (centres undefined)  Dual specificity protein phosphatase 3 (Homo sapiens) (UniProt P51452)         FALSE
 2  O=C(Nc1ccc(S(=O)(=O)Nc2ccccn2)cc1)c1ccccc1  Dual specificity protein phosphatase 3 (Homo sapiens) (UniProt P51452)         FALSE
 3               Cc1ccc(C(=O)N2CCCC2)c(F)c1F  Dual specificity protein phosphatase 3 (Homo sapiens) (UniProt P51452)         FALSE
 4  Cn1c(C(=O)N2CCCC(C(=O)NCc3ccccc3)C2)cc2sccc21 (centres undefined)  Dual specificity protein phosphatase 3 (Homo sapiens) (UniProt P51452)         FALSE
 5  COc1ccc(CNC(=O)CN(c2ccc(OC)c(Cl)c2)S(=O)(=O)c2ccc(C)cc2)cc1  Dual specificity protein phosphatase 3 (Homo sapiens) (UniProt P51452)          TRUE
 6  Cc1ccc(-c2nc(SCC(=O)Nc3ccccc3OC(F)F)c3c(C)c(C(=O)O)sc3n2)cc1  Dual specificity protein phosphatase 3 (Homo sapiens) (UniProt P51452)          TRUE
 7  O=C(NCCOc1cccnc1)c1ccc(OC2CCN(Cc3ccccn3)CC2)cc1  Dual specificity protein phosphatase 3 (Homo sapiens) (UniProt P51452)         FALSE
 8  COc1ccc(S(=O)(=O)N2CCC(C(=O)N3CCCC3)CC2)cc1C  Dual specificity protein phosphatase 3 (Homo sapiens) (UniProt P51452)         FALSE
 9  Cc1c(CCC(=O)O)c(=O)oc2c(C)c(OCc3ccccc3Cl)ccc12  Dual specificity protein phosphatase 3 (Homo sapiens) (UniProt P51452)          TRUE
10            CSc1ncccc1C(=O)OCC(=O)N1CCOCC1  Dual specificity protein phosphatase 3 (Homo sapiens) (UniProt P51452)         FALSE
11          Cc1ccc(CSc2nnc(-c3cnccn3)n2C)cc1  Dual specificity protein phosphatase 3 (Homo sapiens) (UniProt P51452)         FALSE
12  COc1ccccc1NC(=O)CSc1nc2sc3c(c2c(=O)n1-c1ccccc1)CCN(C)C3  Dual specificity protein phosphatase 3 (Homo sapiens) (UniProt P51452)         FALSE
13       Clc1ccc(Nc2ncnc3c2nnn3Cc2ccccc2)cc1  Dual specificity protein phosphatase 3 (Homo sapiens) (UniProt P51452)         FALSE
14              CN(C(=O)c1ccccc1)c1nccnc1C#N  Dual specificity protein phosphatase 3 (Homo sapiens) (UniProt P51452)         FALSE
15  CCOC(=O)c1ccc(NC(=O)c2nc[nH]c2C(=O)N[C@@H](CCCCNC(=O)OC(C)(C)C)C(=O)OC(C)(C)C)cc1  Dual specificity protein phosphatase 3 (Homo sapiens) (UniProt P51452)         FALSE
16     CC(=O)N1CCN(CC(=O)Nc2ccc(C)c(F)c2)CC1  Dual specificity protein phosphatase 3 (Homo sapiens) (UniProt P51452)         FALSE
17     CCOc1cccc(-c2nnc(SCC(=O)NC3CC3)n2C)c1  Dual specificity protein phosphatase 3 (Homo sapiens) (UniProt P51452)         FALSE
18   COc1cc(S(=O)(=O)N2CCN=C2c2ccccc2)ccc1Cl  Dual specificity protein phosphatase 3 (Homo sapiens) (UniProt P51452)         FALSE
19  CNC(=O)COC(=O)c1cc(-c2ccc(OC)cc2)nc2ccccc12  Dual specificity protein phosphatase 3 (Homo sapiens) (UniProt P51452)         FALSE
20  CN(CC(=O)NCc1ccc(Cl)cc1)S(=O)(=O)c1cccs1  Dual specificity protein phosphatase 3 (Homo sapiens) (UniProt P51452)         FALSE
21  Cc1nc(Nc2ccc3c(c2)OCCO3)c2nnn(Cc3ccccc3Cl)c2n1  Dual specificity protein phosphatase 3 (Homo sapiens) (UniProt P51452)         FALSE
22  Cc1c(CCC(=O)O)c(=O)oc2cc(OCc3ccc(Br)cc3)ccc12  Dual specificity protein phosphatase 3 (Homo sapiens) (UniProt P51452)         FALSE
23  COc1ccc(NC2CCCN(C(=O)c3ccncc3)C2)cc1 (centres undefined)  Dual specificity protein phosphatase 3 (Homo sapiens) (UniProt P51452)          TRUE
24  Cc1cc(C)c(S(=O)(=O)N(C)CC(=O)NCC2CCCO2)c(C)c1 (centres undefined)  Dual specificity protein phosphatase 3 (Homo sapiens) (UniProt P51452)         FALSE
25  CCOc1ccc(N(CC(=O)NCc2ccc(OC)cc2)S(=O)(=O)c2c(C)noc2C)cc1  Dual specificity protein phosphatase 3 (Homo sapiens) (UniProt P51452)         FALSE
26  CCOc1ccc(NC(=S)N2CCC(NC(=O)c3ccccc3)CC2)cc1  Dual specificity protein phosphatase 3 (Homo sapiens) (UniProt P51452)         FALSE
27             CSc1ncccc1C(=O)OCc1ccc(Br)cc1  Dual specificity protein phosphatase 3 (Homo sapiens) (UniProt P51452)          TRUE
28  CCC(C(=O)NC1CCCC1)N(C(=O)Cn1nnc(-c2ccc(C)o2)n1)c1ccc(OC)c(OC)c1 (centres undefined)  Dual specificity protein phosphatase 3 (Homo sapiens) (UniProt P51452)         FALSE
29  COc1cc(C(=O)N2CCN(C3CCC(C)CC3)CC2)cc(OC)c1OC (centres undefined)  Dual specificity protein phosphatase 3 (Homo sapiens) (UniProt P51452)         FALSE
30  O=C(CCS(=O)(=O)c1ccc2c(c1)NC(=O)CS2)NCc1ccccc1Cl  Dual specificity protein phosphatase 3 (Homo sapiens) (UniProt P51452)         FALSE
31  COc1ccc(S(=O)(=O)N(CC(=O)NCc2ccco2)c2ccc(F)cc2)cc1  Dual specificity protein phosphatase 3 (Homo sapiens) (UniProt P51452)         FALSE
32  CCCCOP(=O)(c1ccc(N(C)C)cc1)C(O)c1cc(OC)ccc1OC (centres undefined)  Dual specificity protein phosphatase 3 (Homo sapiens) (UniProt P51452)         FALSE
33  Cc1ccc(C)c(SCc2nc3sc(C(=O)O)c(C)c3c(=O)[nH]2)c1  Dual specificity protein phosphatase 3 (Homo sapiens) (UniProt P51452)         FALSE
34           COc1ccc(CCc2nc(-c3cccs3)no2)cc1  Dual specificity protein phosphatase 3 (Homo sapiens) (UniProt P51452)         FALSE
35  CCc1ccc(NC(=O)CN2CCC(C(=O)c3ccc(OC)cc3)CC2)cc1  Dual specificity protein phosphatase 3 (Homo sapiens) (UniProt P51452)          TRUE
36  O=C(COc1ccc(Br)cc1F)NC1CCN(Cc2ccccc2)CC1  Dual specificity protein phosphatase 3 (Homo sapiens) (UniProt P51452)         FALSE
37  CCc1ccc(-c2cc(C)no2)cc1S(=O)(=O)NCCc1ccc(S(N)(=O)=O)cc1  Dual specificity protein phosphatase 3 (Homo sapiens) (UniProt P51452)         FALSE
38  CC(=O)Nc1ccc(Nc2ncnc3c2nnn3Cc2ccccc2Cl)cc1  Dual specificity protein phosphatase 3 (Homo sapiens) (UniProt P51452)          TRUE
39  CC(=O)N[C@@H](C)C(=O)N1CCC(n2nccc2NC(=O)CCCc2ccccc2)CC1  Dual specificity protein phosphatase 3 (Homo sapiens) (UniProt P51452)         FALSE
40  Cc1ccccc1OCC(=O)NNC(=O)c1cc(S(=O)(=O)N(C)C)ccc1N1CCCC1  Dual specificity protein phosphatase 3 (Homo sapiens) (UniProt P51452)         FALSE
41  CCC(C)c1ccccc1NC(=O)CN(C)CC(=O)Nc1ccccc1SC (centres undefined)  Dual specificity protein phosphatase 3 (Homo sapiens) (UniProt P51452)         FALSE
42  CC(C)c1ccc(NC2CCCN(C(=O)c3ccncc3)C2)cc1 (centres undefined)  Dual specificity protein phosphatase 3 (Homo sapiens) (UniProt P51452)         FALSE
43   O=C(O)C1=NN(c2c(F)c(F)cc(F)c2F)C(=O)CC1  Dual specificity protein phosphatase 3 (Homo sapiens) (UniProt P51452)         FALSE
44  COC(=O)CN1C(=O)[C@H]2[C@@H](/C=C/c3ccccc3)N3C(=O)CN(Cc4ccccc4)C(=O)[C@@]3(Cc3ccccc3)[C@H]2C1=O  Dual specificity protein phosphatase 3 (Homo sapiens) (UniProt P51452)         FALSE
